target: BRAF G466V (Homo sapiens, UniProt P15056, G466V); construct: expressed in transfected cells; experiment: Cellular assay of target protein degradation, T-Rex 293 cells stably transfected with HA-BRAF G466V (HA immunofluorescence, high content imaging); format: cell-based; conditions: maximum degradation observed, T-Rex 293 HA-BRAF G466V
Sequence (P15056 whole entry G466V): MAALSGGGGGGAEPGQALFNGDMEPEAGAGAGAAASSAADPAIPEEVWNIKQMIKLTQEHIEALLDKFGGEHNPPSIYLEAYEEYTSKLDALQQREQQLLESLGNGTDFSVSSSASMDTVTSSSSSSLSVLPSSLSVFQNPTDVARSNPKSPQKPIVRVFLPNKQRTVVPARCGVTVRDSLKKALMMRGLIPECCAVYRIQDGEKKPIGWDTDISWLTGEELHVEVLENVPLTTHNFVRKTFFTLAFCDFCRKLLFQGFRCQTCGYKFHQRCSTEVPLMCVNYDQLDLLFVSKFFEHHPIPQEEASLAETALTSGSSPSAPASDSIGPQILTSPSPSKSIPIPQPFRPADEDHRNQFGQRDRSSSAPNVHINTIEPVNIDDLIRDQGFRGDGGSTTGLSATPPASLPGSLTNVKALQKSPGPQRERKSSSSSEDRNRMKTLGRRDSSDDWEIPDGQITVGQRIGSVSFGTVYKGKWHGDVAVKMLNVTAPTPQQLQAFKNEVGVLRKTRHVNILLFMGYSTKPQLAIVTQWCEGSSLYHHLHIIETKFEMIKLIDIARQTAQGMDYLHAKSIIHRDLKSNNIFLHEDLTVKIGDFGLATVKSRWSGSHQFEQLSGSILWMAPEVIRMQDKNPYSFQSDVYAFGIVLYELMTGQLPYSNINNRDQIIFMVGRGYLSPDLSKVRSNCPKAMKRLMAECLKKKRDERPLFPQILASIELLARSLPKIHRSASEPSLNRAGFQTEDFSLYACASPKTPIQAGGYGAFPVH
readout-label: Dmax

I am curious: what Dmax value has been reported for C[C@@H]1CC[C@@H](C)N1S(=O)(=O)Nc1ccc(F)c(C(=O)c2c[nH]c3ncc(-c4ccc(N5CCC(CN6CCC(c7ccc8c(c7)CN([C@H]7CCC(=O)NC7=O)C8=O)CC6)CC5)cc4)cc23)c1F [Compound 277] ?
> 70%

Would you mind doing O=C1CCC(N2Cc3cc(N4CCC(CN5CCN(c6ncc(-c7cnc8[nH]cc(C(=O)c9c(F)ccc(NS(=O)(=O)N%10CC[C@@H](F)C%10)c9F)c8c7)cn6)CC5)CC4)ccc3C2=O)C(=O)N1 (stereo partly drawn) [Compound 18] as well?
35 to 70%

Would you mind doing CCCS(=O)(=O)Nc1ccc(F)c(-n2cc(-c3cncnc3)c3nc(N(C)C4CCN(C(=O)CCOCCOCCOCCOCCNc5cccc6c5C(=O)N(C5CCC(=O)NC5=O)C6=O)CC4)ccc32)c1F (stereo not drawn) [Compound 338] as well?
35 to 70%

----------
molecular target: BRAF G466V (Homo sapiens, UniProt P15056, G466V); construct: expressed in transfected cells; experiment: Cellular assay of target protein degradation, T-Rex 293 cells stably transfected with HA-BRAF G466V (HA immunofluorescence, high content imaging); format: cell-based; details: half maximal degradation, T-Rex 293 HA-BRAF G466V; read-out: BRaf G466V DC50
readout-label: DC50

| molecule | DC50 |
| --- | --- |
| COc1cc(CN2CCN(c3ccc(-c4cnc5[nH]cc(C(=O)c6c(F)ccc(NS(=O)(=O)N7CC[C@@H](F)C7)c6F)c5c4)cc3)CC2)cc2c1C(=O)N(C1CCC(=O)NC1=O)C2 (some centres unmarked) [Compound 102] | 1 to 10 nM |
| CCCS(=O)(=O)Nc1ccc(F)c(C(=O)c2c[nH]c3ncc(-c4ccc(N5CCC(CN6CCC(c7ccc8c(c7)CN(C7CCC(=O)NC7=O)C8=O)CC6)CC5)cc4)cc23)c1F (centres unmarked) [Compound 236] | < 1 nM |
| COc1cc(N2CC3(CN(CC4CCN(c5ccc(-c6cnc7[nH]cc(C(=O)c8c(F)ccc(NS(=O)(=O)N9CC[C@@H](F)C9)c8F)c7c6)cn5)CC4)C3)C2)cc2c1C(=O)N(C1CCC(=O)NC1=O)C2 (some centres unmarked) [Compound 133] | < 1 nM |
| Nc1ccc(F)c(C(=O)c2c[nH]c3ncc(-c4ccc(N5CCC(CN6CC7(C6)CN(c6ccc(C(=O)N[C@H]8CCC(=O)NC8=O)c(F)c6)C7)CC5)cc4)cc23)c1F [Compound 363] | > 30 nM |

Let us examine a further case.
I am curious: what DC50 value has been reported for O=C1CCC(N2Cc3cc(N4CCC(CN5CC[C@@H]6[C@H](C5)CN6c5ccc(-c6cnc7[nH]cc(C(=O)c8c(F)ccc(NS(=O)(=O)N9CC[C@@H](F)C9)c8F)c7c6)cc5)CC4)ccc3C2=O)C(=O)N1 (some centres unmarked) [Compound 311] ?
1 to 10 nM
